# experimental.system: GLUT1 (Homo sapiens, UniProt P11166)
# Sequence (P11166 1-492): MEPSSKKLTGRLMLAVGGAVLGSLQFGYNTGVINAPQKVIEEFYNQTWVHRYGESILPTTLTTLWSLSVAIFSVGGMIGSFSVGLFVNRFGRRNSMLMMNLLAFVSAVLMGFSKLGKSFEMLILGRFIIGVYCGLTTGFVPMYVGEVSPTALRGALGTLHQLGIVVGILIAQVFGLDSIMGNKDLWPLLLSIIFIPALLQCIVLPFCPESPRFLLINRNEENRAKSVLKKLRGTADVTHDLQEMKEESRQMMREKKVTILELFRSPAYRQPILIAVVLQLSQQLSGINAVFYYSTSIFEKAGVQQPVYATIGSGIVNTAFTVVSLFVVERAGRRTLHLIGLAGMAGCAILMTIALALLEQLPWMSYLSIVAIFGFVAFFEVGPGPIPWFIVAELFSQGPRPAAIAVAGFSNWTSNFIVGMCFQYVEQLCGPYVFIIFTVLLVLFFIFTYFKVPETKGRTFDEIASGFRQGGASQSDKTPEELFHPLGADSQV
# procedure.summary: Indirect measurement of GLUT1 activity by quantification of intracellular ATP levels (glucose induced ATP increase)
# Type: cell-based
# Set-up: endogenous in cells; host or cells: DLD1 or CHO-K1
# experimental.conditions: read-out: IC50 regarding glucose induced ATP increase (GLUT1 inhibition)
assay.readout: IC50 (nM)

1) Cc1nn(Cc2ccc(F)cc2)c(C)c1NC(=O)c1cc(C(F)(F)F)nc2ccc(OC(F)(F)F)cc12 = 129

I = COc1cc(C#N)ccc1Cn1nc(C)c(NC(=O)c2cc(C(N)=O)nc3cc(F)ccc23)c1C
II = Cc1nn(Cc2ccc(S(C)(=O)=O)cc2)c(C)c1NC(=O)c1cc(C(N)=O)nc2cc(F)c(F)cc12
Out of I and II , name the one with the higher IC50. Field: selected label. Fill in the label of the entry you choose. I
(I: 67.2 nM, II: 5.8 nM)

I = Cc1nn(CC2CCCCC2)c(C)c1NC(=O)c1cc(C(F)(F)F)nc2ccc(Br)cc12
II = Cc1cc(C#N)c2nc(C(F)(F)F)cc(C(=O)Nc3c(C)nn(Cc4ccc(F)cc4)c3C)c2c1
Out of I and II , name the one with the higher IC50. Field: selected label. Fill in the label of the entry you choose. II

P = CCc1ccc(Cn2nc(C(F)(F)F)c(NC(=O)c3cc(C(N)=O)nc4cc(F)c(Cl)cc34)c2C)cc1
Q = CNC(=O)CCNC(=O)c1ccc(Cn2nc(C)c(NC(=O)c3cc(C(F)(F)F)nc4ccc(Br)cc34)c2C)cc1
R = COc1cc(C#N)ccc1Cn1nc(C)c(NC(=O)c2cc(C(N)=O)nc3cccc(F)c23)c1C
S = COc1cc(C(=O)Nc2c(C)nn(CCCc3ccc(C#N)cc3)c2C)c2ccccc2n1
List from greatest to least IC50. Use the labels to give the requested order. Q, S, R, P

====

# experimental.system: GLUT1 (Homo sapiens)
# procedure.summary: Indirect measurement of GLUT1 activity by quantification of intracellular ATP levels (glucose induced ATP increase)
# Assay type: cell-based
# Set-up: endogenous in cells; host or cells: DLD1 or CHO-K1
# experimental.conditions: read-out: IC50 regarding glucose induced ATP increase (GLUT1 inhibition)
pIC50: −log10 of the molar value.
assay.readout: pIC50

// worked examples, pIC50 included
1. Cc1nonc1Cn1nc(C)c(NC(=O)c2cc(C(N)=O)nc3ccccc23)c1C = 6.50
2. Cc1c(NC(=O)c2cc(C(N)=O)nc3cc(F)ccc23)c(C(F)(F)F)nn1Cc1ccc(C(=O)NCCO)cc1 = 6.91
3. C=Cc1ccc(Cn2nc(C)c(NC(=O)c3cc(OC)nc4ccccc34)c2C)cc1 = 6.70
4. Cc1nn(Cc2c(F)cc(C#N)cc2F)c(C)c1NC(=O)c1cc(C(N)=O)nc2cc(F)ccc12 = 8.26
5. COc1cc(C(=O)Nc2c(C)nn(Cc3ccccc3C(F)(F)F)c2C)c2ccccc2n1 = 4.95

A = Cc1nn(Cc2ccncn2)c(C)c1NC(=O)c1cc(C(F)(F)F)nc2ccc(Br)cc12
B = Cc1c(NC(=O)c2cc(C(F)(F)F)nc3ccc(Br)cc23)c(C#N)nn1Cc1ccc(F)cc1
Out of A and B , name the one with the higher pIC50. Field: selected label. Fill in the label of the entry you choose. B

P = COc1ccc(Cn2nc(C(F)(F)F)c(NC(=O)c3cc(C(N)=O)nc4ccccc34)c2C)cc1
Q = Cc1nn(CC2CCN(S(=O)(=O)C3CC3)CC2)c(C)c1NC(=O)c1cc(C(N)=O)nc2ccccc12
I'm curious whether P or Q has the smaller pIC50 number. Which is it? Field: selected label. Fill in the label of the entry you choose. Q
